IC50 data for Sodium-dependent serotonin transporter (Rattus norvegicus) follow.
Output spec: scalar in nM, unitless text.

compound="COC(=O)[C@H]1[C@@H](c2ccc(F)cc2)C[C@H]2CC[C@H]1N2C (stereo in doubt; 2a)" testreadout=IC50 valueobserved=5060
compound="COC(=O)[C@H]1[C@@H](c2ccc(F)cc2)C[C@H]2CC[C@H]1N2C (stereo in doubt; 1a)" testreadout=IC50 valueobserved=810

Continue with the compound presented below.
Ask | Read off the recorded IC50 for COC(=O)C1C(c2ccc(Cl)cc2)CC2CCC1N2C (stereo in doubt; 2c)
Reply | 998

* * *

- subjectOfTest: Sodium-dependent dopamine transporter (Rattus norvegicus)
- Sequence (P23977 whole entry): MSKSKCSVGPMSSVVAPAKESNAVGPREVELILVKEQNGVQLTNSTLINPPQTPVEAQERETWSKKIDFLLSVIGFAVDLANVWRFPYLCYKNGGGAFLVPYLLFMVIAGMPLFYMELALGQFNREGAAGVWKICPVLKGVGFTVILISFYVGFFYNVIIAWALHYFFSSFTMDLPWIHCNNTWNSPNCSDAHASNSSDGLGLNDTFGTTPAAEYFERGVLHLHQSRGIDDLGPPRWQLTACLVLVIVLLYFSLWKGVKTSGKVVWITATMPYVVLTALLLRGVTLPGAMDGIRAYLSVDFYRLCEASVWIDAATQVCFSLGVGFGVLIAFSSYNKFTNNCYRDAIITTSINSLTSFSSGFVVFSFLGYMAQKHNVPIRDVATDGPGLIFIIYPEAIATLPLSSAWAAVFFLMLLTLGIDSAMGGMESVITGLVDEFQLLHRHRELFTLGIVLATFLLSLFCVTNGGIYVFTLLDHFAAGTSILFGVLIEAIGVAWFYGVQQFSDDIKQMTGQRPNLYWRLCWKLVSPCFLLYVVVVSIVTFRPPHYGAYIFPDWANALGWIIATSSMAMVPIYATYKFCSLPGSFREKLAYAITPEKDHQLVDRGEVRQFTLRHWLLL
testReadout: IC50 (nM)
Output spec: scalar in nM, unitless text.

compound="COC(=O)C1C(c2ccc(I)cc2)CC2CCC1N2C (stereo in doubt; form 1)" testreadout=IC50 valueobserved=2.85

Ask | Under Sodium-dependent dopamine transporter (Rattus norvegicus): report IC50 of COC(=O)[C@@H]1C2CC[C@H](C[C@@H]1c1ccccc1)N2C (stereo in doubt; 2e) .
Reply | 101

Ask | Under Sodium-dependent dopamine transporter (Rattus norvegicus): report IC50 of COC(=O)C1C(c2ccc(Cl)cc2)CC2CCC1N2C (stereo in doubt; 2c) .
Reply | 2.4

Ask | Under Sodium-dependent dopamine transporter (Rattus norvegicus): report IC50 of COC(=O)C1C(c2ccc(C)cc2)CC2CCC1N2C (centres undefined) .
Reply | 10.2

* * *

pIC50 data for Norepinephrine transporter (Rattus norvegicus, UniProt Q9WTR4) follow.
By convention, pIC50 is the negative base-10 log of a molar concentration.

compound="COC(=O)C1C(c2ccc(I)cc2)CC2CCC1N2C (stereo in doubt; form 1)" valueobserved=7.28

Continue with the compound presented below.
Ask | Read off the recorded pIC50 for COC(=O)C1C(c2ccc(C)cc2)CC2CCC1N2C (configuration not stated)
Reply | 6.56

Reference source for all entries: ChEMBL document CHEMBL1129677
